Assay system: recombinant human MMP-13 (Homo sapiens)
Assay: In vitro metalloprotease inhibition, fluorogenic peptide assay
Run parameters: APMA-activated enzyme, MCA peptide substrate 4 μM, room temperature, pH 7.5
Output label 1 for records whose IC50 is lower than 100 nM, label 0 for records at or above 100 nM.

Completed entries (count: 2):
Molecule | Qualitative label
CC(O)(CS(=O)(=O)c1ccc(NC(=O)c2ccccc2)cc1)C(=O)NO (centres unmarked) | label 0
CCCCCc1ccc(C(=O)Nc2ccc(S(=O)(=O)CC(C)(O)C(=O)NO)cc2)cc1 (centres unmarked) | label 1

Asked: Here's an entry: Cc1ccccc1NC(=O)Nc1ccc(S(=O)(=O)CC(C)(O)C(=O)NO)cc1 (centres unmarked) . Is its IC50 below 100 nM?
Given back: label 0

Asked: Repeat with COCC(O)(CS(=O)(=O)c1ccc(Oc2ccccc2)cc1)C(=O)NO (centres unmarked)
Given back: label 1

Asked: Would you kindly repeat that for CC(O)(CS(=O)(=O)c1ccc(NC(=O)Nc2ccccc2)cc1)C(=O)NO (centres unmarked) ?
Given back: label 0

Asked: And CCCCCCCOc1ccc(C(=O)Nc2ccc(S(=O)(=O)CC(C)(O)C(=O)NO)cc2)cc1 (centres unmarked) ?
Given back: label 1

Asked: Next record, please: CCCc1ccc(C(=O)Nc2ccc(S(=O)(=O)CC(C)(O)C(=O)NO)cc2)cc1 (centres unmarked)
Given back: label 1

Asked: Follow-up entry: O=C(NO)C(O)CS(=O)(=O)c1ccc(Oc2ccccc2)cc1 (centres unmarked)
Given back: label 1

====

Assay system: recombinant human MMP-1 (Homo sapiens, UniProt P03956)
Sequence (P03956 100-469): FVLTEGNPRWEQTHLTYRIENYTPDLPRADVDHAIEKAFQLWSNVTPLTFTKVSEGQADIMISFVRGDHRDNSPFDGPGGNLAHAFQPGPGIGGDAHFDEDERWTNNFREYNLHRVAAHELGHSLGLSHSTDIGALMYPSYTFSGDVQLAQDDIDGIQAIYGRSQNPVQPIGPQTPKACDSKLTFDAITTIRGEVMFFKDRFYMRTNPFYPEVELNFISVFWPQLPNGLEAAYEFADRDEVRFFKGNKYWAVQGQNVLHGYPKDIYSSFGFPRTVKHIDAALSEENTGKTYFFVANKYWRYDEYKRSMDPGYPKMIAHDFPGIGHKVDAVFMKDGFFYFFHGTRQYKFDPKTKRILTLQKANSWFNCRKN
Assay: In vitro metalloprotease inhibition, fluorogenic peptide assay
Run parameters: APMA-activated enzyme, MCA peptide substrate 4 μM, room temperature, pH 7.5
Method: Briefly, 4-aminophenylmercuric acetate (APMA) or trypsin activated MMPs were incubated with various concentrations of the inhibitor compound at room temperature for 5 minutes. More specifically, recombinant human MMP-13 and MMP-1 enzymes were prepared in laboratories of the assignee. MMP-13 was expressed in baculovirus as a proenzyme, and purified first over a heparin agarose column and then over a chelating zinc chloride column. The proenzyme was activated by APMA for use in the assay. […]
Each record here notes measured IC50.

Examples with answers:
Compound | IC50
C[C@](O)(CS(=O)(=O)c1ccc(Oc2ccccc2)cc1)C(=O)NO | > 10 µM
Cc1ccc(Oc2ccc(S(=O)(=O)CC(O)(CO)C(=O)NO)cc2)cc1C (stereo not shown) | 9 µM
CC(O)(CS(=O)(=O)c1ccc(NC(=O)c2ccc(Cl)nc2)cc1)C(=O)NO (stereo not shown) | > 10 µM
Cc1ccc(Oc2ccc(S(=O)(=O)CC(O)(CN3CCOCC3)C(=O)NO)cc2)cc1C (stereo not shown) | > 10 µM
CCCCCc1ccc(C(=O)Nc2ccc(S(=O)(=O)CC(C)(O)C(=O)NO)cc2)cc1 (stereo not shown) | > 10 µM

Asked: Request body: readout IC50, system recombinant human MMP-1 (Homo sapiens, UniProt P03956), query CCCCc1ccc(C(=O)Nc2ccc(S(=O)(=O)CC(C)(O)C(=O)NO)cc2)cc1 (stereo not shown) . Return the value.
Given back: > 10 µM

Asked: Try the compound COc1cccc(C(=O)Nc2ccc(S(=O)(=O)CC(C)(O)C(=O)NO)cc2)c1 (stereo not shown)
Given back: > 10 µM

Asked: Same question for CC(C)CC(=O)Nc1ccc(S(=O)(=O)CC(C)(O)C(=O)NO)cc1 (stereo not shown) please.
Given back: > 10 µM

Asked: Subsequent entry: Cc1ccc(NC(=O)Nc2ccc(S(=O)(=O)CC(C)(O)C(=O)NO)cc2)cc1 (stereo not shown)
Given back: > 10 µM

Asked: How about C[C@@](O)(CS(=O)(=O)c1ccc(Oc2ccccc2)cc1)C(=O)NO ?
Given back: 1.01 µM

Asked: Cool, now CC(O)(CS(=O)(=O)c1ccc(NC(=O)c2ccc(Cl)cc2)cc1)C(=O)NO (stereo not shown)
Given back: > 10 µM

Asked: Next compound up: CC(O)(CS(=O)(=O)c1ccc(NC(=O)c2cccc(F)c2)cc1)C(=O)NO (stereo not shown)
Given back: > 10 µM

Asked: Would you mind doing Cc1cccc(C(=O)Nc2ccc(S(=O)(=O)CC(C)(O)C(=O)NO)cc2)c1 (stereo not shown) as well?
Given back: > 10 µM

Asked: Please give the result for O=C(NO)C(O)CS(=O)(=O)c1ccc(Oc2ccccc2)cc1 (stereo not shown) too.
Given back: 3 µM

Asked: Also, Cc1ccccc1NC(=O)Nc1ccc(S(=O)(=O)CC(C)(O)C(=O)NO)cc1 (stereo not shown) please.
Given back: > 10 µM

Asked: Entry to check: CC(O)(CS(=O)(=O)c1ccc(NC(=O)Nc2ccccc2)cc1)C(=O)NO (stereo not shown)
Given back: > 10 µM

Asked: Try the compound CC(O)(CS(=O)(=O)c1ccc(NC(=O)c2cccc(N)c2)cc1)C(=O)NO (stereo not shown)
Given back: > 10 µM

Asked: Do the same for CC(O)(CS(=O)(=O)c1ccc(NC(=O)c2ccc(F)c(F)c2)cc1)C(=O)NO (stereo not shown) please
Given back: > 10 µM

Asked: Further, for CC(O)(CS(=O)(=O)c1ccc(NC(=O)c2cccc([N+](=O)[O-])c2)cc1)C(=O)NO (stereo not shown) ?
Given back: > 10 µM

Asked: Try this compound too: CC(O)(CS(=O)(=O)c1ccc(Oc2ccccc2)cc1)C(=O)NO (stereo not shown)
Given back: 1.1 µM

Asked: Moving on to CC(O)(CS(=O)(=O)c1ccc(NC(=O)c2ccccc2)cc1)C(=O)NO (stereo not shown)
Given back: > 10 µM

Asked: Next entry: O=C(NO)C(O)CS(=O)(=O)c1ccc(Sc2ccccc2)cc1 (stereo not shown)
Given back: > 10 µM

Asked: Then O=C(NO)[C@H](O)CS(=O)(=O)c1ccc(Oc2ccccc2)cc1 ?
Given back: 7 µM

Asked: // same read-out, input: CCCCOc1ccc(C(=O)Nc2ccc(S(=O)(=O)CC(C)(O)C(=O)NO)cc2)cc1 (stereo not shown)
Given back: > 10 µM

Asked: Moving on to CCCc1ccc(C(=O)Nc2ccc(S(=O)(=O)CC(C)(O)C(=O)NO)cc2)cc1 (stereo not shown)
Given back: > 10 µM
